# Test system: MS2 coat protein
# experiment description: apparent Kd, MS2 coat protein; higher = weaker binding; RNA-MaP array; FMN 200 µM where present
# conditions used: ligand present: flavin mononucleotide; designed as: ON switch for flavin mononucleotide
attribute measured: apparent Kd (nM)

seq_text=GGUACCUUCACAGGAUAUGCUAUGCUUUGCGUAGCAGAAGGGUGAUACAUGAGGAUCACCCAUGUGGUGCCAGGGCGUGAGCCC attribute_measured="apparent Kd" unit_symbol=nM numeric_readout=278
seq_text=UAUAAAUUAAAAGGAUAUUCAUACCGGAAACGGACAUGAGGAUCACCCAUGUGGCGAAAGCCUUGGGAGAAGGUAUUAAAUAAU attribute_measured="apparent Kd" unit_symbol=nM numeric_readout=263
seq_text=AAUCGGGAGCAGAAGGCAUGUCAUAAGACAUGAGGAUCACCCAUGUAGUUAAGGCGAAAGCCGCAUGAGGAUAUGCUCCCGUAA attribute_measured="apparent Kd" unit_symbol=nM numeric_readout=6.27
seq_text=UUCAAAUUCGUAGGAUAUGUAUAUAAUUUCUACAUGAGGAUCACCCAUGUUACCAUUUUUUAGUGACAGAAGGACGUAAUCUAA attribute_measured="apparent Kd" unit_symbol=nM numeric_readout=47.6

Cited source: the EternaBench riboswitch data
